target: T1, human IL-6 (human, UniProt P05231 30-212); assay: SPR Biacore, supernatant Ab on Protein A chip, 37 C
T1 construct: IL-6 flowed over captured antibodies
T1 sequence (P05231 30-212 limits assumed): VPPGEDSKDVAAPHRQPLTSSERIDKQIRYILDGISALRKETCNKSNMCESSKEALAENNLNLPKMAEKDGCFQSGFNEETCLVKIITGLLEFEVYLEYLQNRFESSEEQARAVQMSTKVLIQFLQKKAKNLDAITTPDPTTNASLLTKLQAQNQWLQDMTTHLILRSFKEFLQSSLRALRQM
ATTRIBUTE MEASURED: kon
Include the unit right after the number.

Find the recorded kon belonging to anti-IL-6 antibody, heavy chain S35V, G66D / light chain M32L, M50D, N52S, M88Q (antibody, IgG1, V domains shown, Full IgG1 (Expi293); VL = variant III) VH: EVQLVESGGGLVQPGGSLRLSCAASGFTFSPFAMVWVRQAPGKGLEWVAKISPGGSWTYYSDTVTDRFTFSLDTSKSTAYLQMNSLRAEDTAVYYCARQLWGYYALDIWGQGTLVTVSS VL: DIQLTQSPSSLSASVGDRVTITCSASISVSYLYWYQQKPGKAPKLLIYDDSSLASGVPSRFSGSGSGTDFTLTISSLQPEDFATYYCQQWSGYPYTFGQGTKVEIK and report it. 1.03e+06 M⁻¹ s⁻¹

Find the recorded kon belonging to anti-IL-6 antibody, heavy chain I51G, G66D / light chain M32L, M50D, N52S, M88Q (antibody, IgG1, V domains shown, Full IgG1 (Expi293); VL = variant III) VH: EVQLVESGGGLVQPGGSLRLSCAASGFTFSPFAMSWVRQAPGKGLEWVAKGSPGGSWTYYSDTVTDRFTFSLDTSKSTAYLQMNSLRAEDTAVYYCARQLWGYYALDIWGQGTLVTVSS VL: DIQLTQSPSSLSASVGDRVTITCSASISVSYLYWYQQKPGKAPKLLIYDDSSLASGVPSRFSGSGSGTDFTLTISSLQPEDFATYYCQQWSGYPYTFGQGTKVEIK and report it. 1.4e+06 M⁻¹ s⁻¹

Find the recorded kon belonging to anti-IL-6 antibody, heavy chain S35K, G66D / light chain M32L, M50D, N52S, M88Q (antibody, IgG1, V domains shown, Full IgG1 (Expi293); VL = variant III) VH: EVQLVESGGGLVQPGGSLRLSCAASGFTFSPFAMKWVRQAPGKGLEWVAKISPGGSWTYYSDTVTDRFTFSLDTSKSTAYLQMNSLRAEDTAVYYCARQLWGYYALDIWGQGTLVTVSS VL: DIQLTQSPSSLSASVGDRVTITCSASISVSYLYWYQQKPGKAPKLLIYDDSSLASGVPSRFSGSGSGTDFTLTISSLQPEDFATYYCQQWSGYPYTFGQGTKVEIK and report it. 1.31e+06 M⁻¹ s⁻¹

Find the recorded kon belonging to anti-IL-6 antibody, heavy chain T63K, G66D / light chain M32L, M50D, N52S, M88Q (antibody, IgG1, V domains shown, Full IgG1 (Expi293); VL = variant III) VH: EVQLVESGGGLVQPGGSLRLSCAASGFTFSPFAMSWVRQAPGKGLEWVAKISPGGSWTYYSDKVTDRFTFSLDTSKSTAYLQMNSLRAEDTAVYYCARQLWGYYALDIWGQGTLVTVSS VL: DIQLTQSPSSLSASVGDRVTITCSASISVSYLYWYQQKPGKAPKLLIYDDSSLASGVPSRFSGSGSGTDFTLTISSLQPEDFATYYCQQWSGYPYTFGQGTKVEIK and report it. 2.15e+06 M⁻¹ s⁻¹

Find the recorded kon belonging to anti-IL-6 antibody, heavy chain S35W, G66D / light chain M32L, M50D, N52S, M88Q (antibody, IgG1, V domains shown, Full IgG1 (Expi293); VL = variant III) VH: EVQLVESGGGLVQPGGSLRLSCAASGFTFSPFAMWWVRQAPGKGLEWVAKISPGGSWTYYSDTVTDRFTFSLDTSKSTAYLQMNSLRAEDTAVYYCARQLWGYYALDIWGQGTLVTVSS VL: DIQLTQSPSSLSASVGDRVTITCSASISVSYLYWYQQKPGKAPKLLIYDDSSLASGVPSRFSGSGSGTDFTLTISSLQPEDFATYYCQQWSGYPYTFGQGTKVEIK and report it. 171000 M⁻¹ s⁻¹

Find the recorded kon belonging to anti-IL-6 antibody, heavy chain T65L, G66D / light chain M32L, M50D, N52S, M88Q (antibody, IgG1, V domains shown, Full IgG1 (Expi293); VL = variant III) VH: EVQLVESGGGLVQPGGSLRLSCAASGFTFSPFAMSWVRQAPGKGLEWVAKISPGGSWTYYSDTVLDRFTFSLDTSKSTAYLQMNSLRAEDTAVYYCARQLWGYYALDIWGQGTLVTVSS VL: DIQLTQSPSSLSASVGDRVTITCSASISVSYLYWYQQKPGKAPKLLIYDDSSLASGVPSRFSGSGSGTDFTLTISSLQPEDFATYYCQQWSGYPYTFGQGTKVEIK and report it. 1.53e+06 M⁻¹ s⁻¹

Find the recorded kon belonging to anti-IL-6 antibody, heavy chain I51H, G66D / light chain M32L, M50D, N52S, M88Q (antibody, IgG1, V domains shown, Full IgG1 (Expi293); VL = variant III) VH: EVQLVESGGGLVQPGGSLRLSCAASGFTFSPFAMSWVRQAPGKGLEWVAKHSPGGSWTYYSDTVTDRFTFSLDTSKSTAYLQMNSLRAEDTAVYYCARQLWGYYALDIWGQGTLVTVSS VL: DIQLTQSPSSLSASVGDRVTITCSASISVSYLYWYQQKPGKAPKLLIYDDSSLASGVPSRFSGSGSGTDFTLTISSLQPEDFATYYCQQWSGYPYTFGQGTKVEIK and report it. 2.07e+06 M⁻¹ s⁻¹

Find the recorded kon belonging to anti-IL-6 antibody, heavy chain S35G, G66D / light chain M32L, M50D, N52S, M88Q (antibody, IgG1, V domains shown, Full IgG1 (Expi293); VL = variant III) VH: EVQLVESGGGLVQPGGSLRLSCAASGFTFSPFAMGWVRQAPGKGLEWVAKISPGGSWTYYSDTVTDRFTFSLDTSKSTAYLQMNSLRAEDTAVYYCARQLWGYYALDIWGQGTLVTVSS VL: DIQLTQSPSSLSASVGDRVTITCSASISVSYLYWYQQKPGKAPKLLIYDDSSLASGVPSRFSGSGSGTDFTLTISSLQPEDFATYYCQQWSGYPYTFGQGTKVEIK and report it. 1.28e+06 M⁻¹ s⁻¹

Find the recorded kon belonging to anti-IL-6 antibody, heavy chain S35P, G66D / light chain M32L, M50D, N52S, M88Q (antibody, IgG1, V domains shown, Full IgG1 (Expi293); VL = variant III) VH: EVQLVESGGGLVQPGGSLRLSCAASGFTFSPFAMPWVRQAPGKGLEWVAKISPGGSWTYYSDTVTDRFTFSLDTSKSTAYLQMNSLRAEDTAVYYCARQLWGYYALDIWGQGTLVTVSS VL: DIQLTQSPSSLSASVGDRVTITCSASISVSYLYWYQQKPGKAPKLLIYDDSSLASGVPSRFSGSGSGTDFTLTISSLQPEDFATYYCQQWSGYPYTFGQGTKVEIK and report it. 202000 M⁻¹ s⁻¹

Find the recorded kon belonging to anti-IL-6 antibody, heavy chain T65P, G66D / light chain M32L, M50D, N52S, M88Q (antibody, IgG1, V domains shown, Full IgG1 (Expi293); VL = variant III) VH: EVQLVESGGGLVQPGGSLRLSCAASGFTFSPFAMSWVRQAPGKGLEWVAKISPGGSWTYYSDTVPDRFTFSLDTSKSTAYLQMNSLRAEDTAVYYCARQLWGYYALDIWGQGTLVTVSS VL: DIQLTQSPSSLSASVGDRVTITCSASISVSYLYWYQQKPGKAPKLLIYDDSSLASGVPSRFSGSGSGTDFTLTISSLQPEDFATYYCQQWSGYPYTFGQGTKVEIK and report it. 1.79e+06 M⁻¹ s⁻¹
